Biological target: USP30 (Homo sapiens (Human), UniProt Q70CQ3)
Sequence (Q70CQ3 57-517): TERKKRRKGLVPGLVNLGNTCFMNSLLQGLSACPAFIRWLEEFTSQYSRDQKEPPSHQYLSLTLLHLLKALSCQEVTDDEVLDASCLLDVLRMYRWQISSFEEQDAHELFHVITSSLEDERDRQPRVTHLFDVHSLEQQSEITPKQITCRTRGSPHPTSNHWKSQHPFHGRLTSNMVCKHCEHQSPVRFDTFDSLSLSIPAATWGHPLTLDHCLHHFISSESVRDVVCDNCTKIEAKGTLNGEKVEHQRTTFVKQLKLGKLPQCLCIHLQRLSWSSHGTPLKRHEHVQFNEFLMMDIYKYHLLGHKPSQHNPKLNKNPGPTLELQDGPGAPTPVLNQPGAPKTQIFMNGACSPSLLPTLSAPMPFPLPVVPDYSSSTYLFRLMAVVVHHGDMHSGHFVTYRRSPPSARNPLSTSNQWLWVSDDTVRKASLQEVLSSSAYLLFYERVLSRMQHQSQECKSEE
pIC50: −log10 of the molar value.
Reported pIC50 values follow for various compounds

- compound: "Cn1cc(-c2ccc3cc(C(=O)N[C@@H]4CCN(C#N)C4)[nH]c3c2)cn1"
  studyTarget: "USP30 (Homo sapiens (Human), UniProt Q70CQ3)"
  assayReadout: "pIC50"
  result: "6.00 to 7.00"
- compound: "CN(C(=O)c1ccc(-c2ccncc2Cl)cc1)[C@@H]1CCN(C#N)C1"
  studyTarget: "USP30 (Homo sapiens (Human), UniProt Q70CQ3)"
  assayReadout: "pIC50"
  result: "6.00 to 7.00"
- compound: "COc1cc(C(=O)N[C@@H]2CCN(C#N)C2)ccc1-c1ccnc(N2CCOCC2)c1"
  studyTarget: "USP30 (Homo sapiens (Human), UniProt Q70CQ3)"
  assayReadout: "pIC50"
  result: "6.00 to 7.00"

// query pIC50 value for entry Cn1cc(-c2ccc3[nH]nc(C(=O)N[C@@H]4CCN(C#N)C4)c3c2)cn1
> 7.00

Now the compound N#CN1CC[C@@H](NC(=O)c2cc(-c3ccccc3)no2)C1
6.00 to 7.00

Now the compound Cc1noc(C)c1-c1ccc2[nH]c(C(=O)N(C)[C@@H]3CCN(C#N)C3)nc2c1
6.00 to 7.00

Now the compound N#CN1CCC(NC(=O)c2ccc(N3CCC(Oc4ccccc4)CC3)nc2)C1 (centres unmarked)
6.00 to 7.00

Now the compound N#CN1C[C@H]2CCN(C(=O)Nc3ccc(-c4ccccc4)cn3)[C@H]2C1
> 7.00
